- TARGET_OF_ASSAY: CDH3-CD3-MSLN-CD3 TCE (SEQ ID NO 255)
- Sequence (chain, as listed by the source): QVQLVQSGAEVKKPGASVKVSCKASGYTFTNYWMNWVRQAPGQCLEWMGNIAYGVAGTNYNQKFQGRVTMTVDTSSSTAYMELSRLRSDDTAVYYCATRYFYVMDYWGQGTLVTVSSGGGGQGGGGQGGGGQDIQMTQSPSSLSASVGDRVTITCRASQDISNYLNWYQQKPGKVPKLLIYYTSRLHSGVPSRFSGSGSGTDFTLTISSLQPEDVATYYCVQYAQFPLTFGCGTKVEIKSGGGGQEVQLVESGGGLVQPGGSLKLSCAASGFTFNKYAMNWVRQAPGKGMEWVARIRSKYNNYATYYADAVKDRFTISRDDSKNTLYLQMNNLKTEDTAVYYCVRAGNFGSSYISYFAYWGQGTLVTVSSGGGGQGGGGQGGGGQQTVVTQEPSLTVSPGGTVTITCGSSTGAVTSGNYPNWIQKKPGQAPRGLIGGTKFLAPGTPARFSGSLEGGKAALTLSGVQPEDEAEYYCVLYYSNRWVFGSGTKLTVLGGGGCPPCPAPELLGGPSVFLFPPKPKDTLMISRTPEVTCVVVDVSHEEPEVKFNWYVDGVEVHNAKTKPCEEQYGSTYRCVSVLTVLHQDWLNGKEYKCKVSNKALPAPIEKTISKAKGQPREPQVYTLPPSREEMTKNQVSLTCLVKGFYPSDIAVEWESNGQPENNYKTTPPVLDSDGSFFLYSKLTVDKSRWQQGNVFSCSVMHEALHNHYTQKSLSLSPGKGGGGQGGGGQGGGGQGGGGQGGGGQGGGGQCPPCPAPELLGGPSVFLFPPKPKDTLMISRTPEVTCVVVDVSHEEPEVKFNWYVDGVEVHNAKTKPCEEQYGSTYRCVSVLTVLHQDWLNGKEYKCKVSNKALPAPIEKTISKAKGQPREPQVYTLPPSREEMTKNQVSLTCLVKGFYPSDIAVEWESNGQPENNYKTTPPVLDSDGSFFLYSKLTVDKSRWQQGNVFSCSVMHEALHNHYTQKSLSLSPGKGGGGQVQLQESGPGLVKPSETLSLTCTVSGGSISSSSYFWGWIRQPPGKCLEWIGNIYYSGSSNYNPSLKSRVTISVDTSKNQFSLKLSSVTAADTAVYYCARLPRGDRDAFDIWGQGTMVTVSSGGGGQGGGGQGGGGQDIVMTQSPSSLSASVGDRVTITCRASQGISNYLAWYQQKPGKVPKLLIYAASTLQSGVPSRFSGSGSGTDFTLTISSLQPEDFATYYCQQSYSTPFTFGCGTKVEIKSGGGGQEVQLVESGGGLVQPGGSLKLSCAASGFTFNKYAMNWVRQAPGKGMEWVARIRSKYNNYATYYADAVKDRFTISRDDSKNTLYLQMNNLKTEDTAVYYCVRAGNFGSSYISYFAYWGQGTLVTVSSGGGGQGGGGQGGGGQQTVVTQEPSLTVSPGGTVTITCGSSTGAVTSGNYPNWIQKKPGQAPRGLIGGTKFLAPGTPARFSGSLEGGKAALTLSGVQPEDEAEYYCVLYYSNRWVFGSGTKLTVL
- TEST_METHOD_NOTES: SPR, peptide immobilised on CM5 (PDEA), TCE as analyte, steady state affinity
Where no end group is shown, it is not given here. [ ]: non-standard residue; d: D form. pGlu = O=C1CC[C@@H](C(=O)O)N1
Reported Kd values follow for various binders
Just the number in nM, nothing appended.

## Task Endpoint output: Kd of [pGlu]DGNEELKGC (also called ID 14974) [pGlu-DGNEELKGC] . Value?
## Result 13.3

## Task Quick one: [pGlu]DGEEELKGC [pGlu-DGEEELKGC]
## Result 72.5
